- experimental.system: T1, gp100 (human)
- T1 construct: cell surface;cell surface complex; also called HLA-A2 / gp100 peptide complex on T2 cells
- protocol.description: flow cytometry on peptide-pulsed T2 cells, scFv 100 nM
measured.attribute: standardized gMFI
Form: value (number only, do not type unit).

binder | standardized gMFI
NYA-1143 (scFv) scFv: GEVQLVESGGGVVQPGRSLTPSCSASGFSIRSYDIHWVRLAPGKGLEWVATISYDGSQKYFADSVKGRFTIFRDESENMVYLQMSGLRVEDTAVYHCARGSSGHYEAFDIWGQGTMVTVSSGGGGSGGGGSGGGGSQSVLTQPPSVSAAPGQKVTISCSGSSSNIGNWYVSWYQQLPGTAPKLLIYDNNKRPSGIPDRFSGSKSGTSATLGITGLQTGDEADYYCGTWDSSLSAPWVFGGGTKVTVLGAAAGAGGDYKDDDDKGAAAHHHHHH | 0.41

For the binder NYA-0001 (scFv, also called NYA-0001 tag adduct; NY-R119 expressed in a cultured mammalian cell) scFv: GEVQLVESGGGVVQPGRSLTPSCSASGFSIRSYDIHWVRQAPGKGLEWVATISYDGSQKYFADSVKGRFTIFRDESENMVYLQMSGLRVEDTAVYHCARGSSGHYEAFDIWGQGTMVTVSSGGGGSGGGGSGGGGSQSVLTQPPSVSAAPGQKVTISCSGSSSNIGNNYVSWYQQLPGTAPKLLIYDNNKRPSGIPDRFSGSKSGTSATLGITGLQTGDEADYYCGTWDSSLSAPWVFGGGTKVTVLGAAAGAGGDYKDDDDKGAAAHHHHHH , give its reported standardized gMFI.
0.43

Each recorded value in this set is attributed to patent US20230348616A1.
